- System: Staphylococcus aureus OWPH 2125 (MRSA, PCA^r )
- Assay Protocol: Determination of minimal inhibitory concentration of growth (MIC)-1, agar plate dilution method
- Format: cell-based
- Test Context: Staphylococcus aureus, MRSA, 18 h, Staphylococcus aureus OWPH 2125 (MRSA, PCA^r); agar plate dilution, 10⁶ CFU/ml, 37°C, 18 hours; read-out: MIC
Test Readout: MIC (µg/mL)

Some solved entries appear below for comparison.
> print(dat)
                                   compound  test.readout  quantity.unit  observed.result
1  CNc1ccc(-c2c(F)cc3c(=O)c(C(=O)O)c4n(c3c2OC)C(C)S4)cc1 (centres unmarked)           MIC          µg/mL              0.1
2  CC1Sc2c(C(=O)O)c(=O)c3cc(F)c(-c4ccc(N)cc4)cc3n21.Cl (centres unmarked)           MIC          µg/mL             0.05

(I) COc1c(-c2ccccc2)c(F)cc2c(=O)c(C(=O)O)c3n(c12)C(C)S3 (centres unmarked)
(II) CC1COc2c(N3CCN(C)CC3)c(F)cc3c(=O)c(C(=O)O)cn1c23 (racemic) [OFLX, ofloxacin, reference compound]
(III) CC1Sc2c(C(=O)O)c(=O)c3cc(F)c(-c4ccccc4)cc3n21 (centres unmarked)
(IV) CC1Sc2c(C(=O)O)c(=O)c3cc(F)c(N4CCNCC4)cc3n21 (centres unmarked) [Control, reference compound]
Lookup: Rank by MIC (largest to smallest). Order the labels as requested and list them.
Found: IV, II, I, III
(IV: 12.5 µg/mL, II: 6.25 µg/mL, I: 0.1 µg/mL, III: 0.05 µg/mL)

====

- System: Staphylococcus aureus OWPH 2125 (MRSA, PCA^r )
- Assay Protocol: Determination of minimal inhibitory concentration of growth (MIC)-1, agar plate dilution method
- Type: cell-based
- Test Context: Staphylococcus aureus, MRSA, 18 h, Staphylococcus aureus OWPH 2125 (MRSA, PCA^r); agar plate dilution, 10⁶ CFU/ml, 37°C, 18 hours; read-out: MIC
Test Readout: MIC (µg/mL)

> print(dat)
                                   compound  quantity.unit  observed.result
1  COc1ccc(-c2cc3c(cc2F)c(=O)c(C(=O)O)c2n3C(C)S2)cc1 (centres unmarked)          µg/mL              0.2
2  COc1c(-c2ccccc2)c(F)cc2c(=O)c(C(=O)O)c3n(c12)CS3          µg/mL             0.39

(a) CC1Sc2c(C(=O)O)c(=O)c3cc(F)c(-c4ccc(O)cc4)cc3n21 (centres unmarked)
(b) O=C(O)c1c2n(c3c(F)c(-c4ccccc4)c(F)cc3c1=O)CS2
(c) CC1Sc2c(C(=O)O)c(=O)c3cc(F)c(-c4ccc(N)cc4)c(F)c3n21 (centres unmarked)
Lookup: Rank by MIC (largest to smallest). Order the labels as requested and list them.
Found: b, a, c

====

- System: S. aureus OWPH 2127
- Assay Protocol: Determination of minimal inhibitory concentration (MIC)-2, new quinolone-resistant MRSA
- Assay type: cell-based
- Test Context: Staphylococcus aureus, OWPH2127, 18 h; S. aureus OWPH 2127, new quinolone-resistant and methicillin-resistant; same procedure as Test Example 1
# MIC per record follows

> print(dat)
                                   molecule  test.readout  observed.result
1  NC1CCN(c2nc3c(cc2F)c(=O)c(C(=O)O)cn3-c2ccc(F)cc2F)C1 (stereo not drawn) [TFLX, tosufloxacin, reference compound]           MIC      > 100 µg/mL
2  CCn1cc(C(=O)O)c(=O)c2cc(F)c(N3CCNCC3)cc21 [NFLX, norfloxacin, reference compound]           MIC      > 100 µg/mL

Lookup: Query: MIC; subject: CC1Sc2c(C(=O)O)c(=O)c3cc(F)c(N4CCNCC4)cc3n21 (stereo not drawn) [Control, reference compound]
Found: > 100 µg/mL

====

- System: S. aureus OWPH 1793
- Assay Protocol: Determination of minimal inhibitory concentration (MIC)-2, new quinolone-resistant MRSA
- Type: cell-based
- Test Context: Staphylococcus aureus, OWPH1793, 18 h; S. aureus OWPH 1793, new quinolone-resistant and methicillin-resistant; same procedure as Test Example 1
Test Readout: MIC

Some solved entries appear below for comparison.
> print(dat)
                                   compound  experimental.target  test.readout  observed.result
1  NC1CCN(c2nc3c(cc2F)c(=O)c(C(=O)O)cn3-c2ccc(F)cc2F)C1 (stereo not drawn) [TFLX, tosufloxacin, reference compound]  S. aureus OWPH 1793           MIC      > 100 µg/mL
2  CCn1cc(C(=O)O)c(=O)c2cc(F)c(N3CCNCC3)cc21 [NFLX, norfloxacin, reference compound]  S. aureus OWPH 1793           MIC      > 100 µg/mL

Now for another entry.
Lookup: Query: MIC; subject: CC1Sc2c(C(=O)O)c(=O)c3cc(F)c(N4CCNCC4)cc3n21 (stereo not drawn) [Control, reference compound]
Found: > 100 µg/mL

====

- Tested on: Staphylococcus epider-midis IFO 12993
- Assay Protocol: Determination of minimal inhibitory concentration of growth (MIC)-1, agar plate dilution method
- Assay type: cell-based
- Test Context: Staphylococcus, IFO12993, 18 h, Staphylococcus epider-midis IFO 12993; agar plate dilution, 10⁶ CFU/ml, 37°C, 18 hours; read-out: MIC
Test Readout: MIC (µg/mL)

(A) COc1c(-c2ccccc2)c(F)cc2c(=O)c(C(=O)O)c3n(c12)C(C)S3 (stereo not shown)
(B) CNc1ccc(-c2cc3c(cc2F)c(=O)c(C(=O)O)c2n3CS2)cc1
(C) O=C(O)c1c2n(c3cc(-c4ccccc4)c(F)cc3c1=O)CS2
Lookup: # sort list by recorded MIC, greatest to least Order the labels as requested and list them.
Found: C, B, A
(C: 0.1 µg/mL, B: 0.05 µg/mL, A: 0.025 µg/mL)
